Please find below IC50 measurements for Protein-tyrosine kinase 6 (Homo sapiens, UniProt Q13882), combined from several publications.

The compound identified as `O=C(NCCN1CCCC1)c1cc2n(c1)CCc1c(NC(=O)c3ccccc3Cl)n[nH]c1-2` registered its IC50 at 4.68 µM

The compound identified as `Nc1ncnc2c1c(-c1ccc(Oc3ccccc3)cc1)nn2C[C@@H]1SSC[C@H]1O` registered its IC50 at 0.005 to 0.099 µM

The compound identified as `CCCCNC(=O)Nc1ccc(F)c(C(=O)c2c[nH]c3ncc(-c4cccnc4)cc23)c1F` registered its IC50 at ≤ 10 µM

The compound identified as `Cc1ccc(C(=O)Nc2n[nH]c3c2CCn2cc(C(=O)N4CCC(N5CCCCC5)CC4)cc2-3)c(C)c1` registered its IC50 at 4.35 µM

The compound identified as `CCCS(=O)(=O)Nc1ccc(F)c(C(=O)c2c[nH]c3ncccc23)c1F` registered its IC50 at ≤ 10 µM

----------
Please find below pIC50 measurements for Protein-tyrosine kinase 6 (Homo sapiens, UniProt Q13882), combined from several publications.
pIC50: −log10 of the molar value.

# lookup: `CCN1CCN(C(=O)c2cc3n(c2)CCc2c(NC(=O)c4ccccc4Cl)n[nH]c2-3)CC1` on Protein-tyrosine kinase 6 (Homo sapiens, UniProt Q13882), pIC50 = 5.24

# lookup: `Nc1ncnc2c1c(-c1ccc(Oc3ccccc3)cc1)nn2C[C@@H]1SSC[C@@H]1O` on Protein-tyrosine kinase 6 (Homo sapiens, UniProt Q13882), pIC50 = 7.00 to 8.30

# lookup: `CCCS(=O)(=O)Nc1ccc(Cl)c(C(=O)c2c[nH]c3ncc(Br)cc23)c1F` on Protein-tyrosine kinase 6 (Homo sapiens, UniProt Q13882), pIC50 = ≥ 5.00

# lookup: `Cc1ccccc1C(=O)Nc1n[nH]c2c1CCn1cc(C(=O)N3CCSCC3)cc1-2` on Protein-tyrosine kinase 6 (Homo sapiens, UniProt Q13882), pIC50 = 5.20

# lookup: `O=C(Nc1n[nH]c2c1CCn1cc(C(=O)N3CCCCC3)cc1-2)c1ccccc1Cl` on Protein-tyrosine kinase 6 (Homo sapiens, UniProt Q13882), pIC50 = 5.44

# lookup: `Nc1ncnc2c1c(-c1ccc(Oc3ccccc3)cc1)nn2C[C@H]1SSC[C@H]1O` on Protein-tyrosine kinase 6 (Homo sapiens, UniProt Q13882), pIC50 = 7.00 to 8.30

# lookup: `OCCOc1ccc(F)c(Cc2c[nH]c3ncc(-c4cccnc4)cc23)c1F` on Protein-tyrosine kinase 6 (Homo sapiens, UniProt Q13882), pIC50 = ≥ 5.00

# lookup: `CCCS(=O)(=O)Nc1ccc(F)c(C(=O)c2c[nH]c3ncc(Cl)cc23)c1F` on Protein-tyrosine kinase 6 (Homo sapiens, UniProt Q13882), pIC50 = ≥ 5.00
